Source listed as patent US6528655B1.

Reported pIC50 values for a set of molecules
- system-tested: HIV-1 integrase (Human immunodeficiency virus type 1 group M subtype B, UniProt P04585)
- procedure-text: HIV-1 integrase inhibition assay (radiolabeled duplex substrate corresponding to the U5 end of the HIV LTR)
- Format: biochemical
Expect pIC50 as a plain number equal to -log10 of the molar concentration.

The cases that follow already have their pIC50 on record.
1) O=C(C=Cc1ccc(O)c(O)c1)NC(Cc1cn(-c2ccc([N+](=O)[O-])cc2[N+](=O)[O-])cn1)C(=O)NCCc1ccc(O)c(O)c1 (stereo not drawn)
6.25
2) O=C(N[C@@H](Cc1cn(C(c2ccccc2)(c2ccccc2)c2ccccc2)cn1)C(=O)NCCc1ccc(O)c(O)c1)c1ccc(O)cc1
5.48
3) O=C(N[C@@H](CSC(c1ccccc1)(c1ccccc1)c1ccccc1)C(=O)NCCc1ccc(O)c(O)c1)c1c(O)cccc1F
5.85

Shifting focus to the molecule that follows.
Input: Data request, read-out pIC50, for `O=C(/C=C/c1ccc(O)c(O)c1)NCCC[C@H](NC(=O)/C=C/c1ccc(O)c(O)c1)C(=O)NCCc1ccc(O)c(O)c1`
Output: 6.06
